- assay: viability loss with induced miR-34 in A549 – imaging, A549 dox-inducible miR-34, nuclei and caspase counts, primary screen (AID 1347080); note: test concentration not given here
- testContext: A549 miR-34 inducible, Hoechst nuclei count, 48 h; measured here: relative caspase fold change +Dox/-Dox
readoutName: fold change
Number only, no unit.

Determine its reported fold change: O=C(c1ccnc(Cl)c1)N1CCc2[nH]nc(C3CCC3)c2C1
0.638

Consider the compound O=S(=O)(O)CCNC1CCCCC1 and give its recorded fold change.
0.147

Using the record for NC1=N[C@@]2(c3cc(NC(=O)c4ccc(F)cn4)ccc3F)COC[C@@H]2CS1 , state its measured fold change.
1.51

Give me measured fold change, please, for this compound: CC1CC2C3CC(F)C4=CC(=O)C(Cl)=C[C@]4(C)[C@@]3(F)C(O)C[C@]2(C)[C@@]1(O)C(=O)CO (some centres not stated)
1.63

Given Cc1ccc(-c2c(-c3nn(C)c4ncnc(N5CCC(N6CCCCC6)C5)c34)cnn2C)cc1 (configuration not stated) , respond with its fold change.
0.458

Given the compound CC[C@@H](C)[C@H]1O[C@]2(CC[C@@H]1C)C[C@@H]1C[C@@H](C/C=C(\C)[C@@H](O[C@H]3C[C@H](OC)[C@@H](O[C@H]4C[C@H](OC)[C@@H](O)[C@H](C)O4)[C@H](C)O3)[C@@H](C)/C=C/C=C3\CO[C@@H]4[C@H](O)C(C)=C[C@@H](C(=O)O1)[C@]34O)O2 , write its reported fold change.
0.534

# return recorded fold change for input O=C(CCc1ccncc1)NNC(=O)N1Cc2ccccc2Oc2ccc(Cl)cc21
1.18

Input C=C[C@]1(C)CC(OC(=O)CSC(C)(C)CNC(=O)C(N)C(C)C)[C@@]2(C)C(C)CC[C@]3(CCC(=O)[C@H]32)C(C)C1O (some centres not stated) , output reported fold change.
1.9

Using the record for O[N+]1=CC=CCC1=S.On1ccccc1=S.[Zn] , state its measured fold change.
2.93

Determine from records and report fold change for CO[C@H]1O[C@@H]2O[C@]3(C)CC[C@@H]4[C@@H](C)CC[C@H]([C@H]1C)[C@]24OO3
1.93

Output fold change of COC(=O)C1=COC(O)[C@@H]2C(CO)=CC[C@H]12 (some centres not stated)
1

Supply fold change value. Item: O=C(C=Cn1cnc(-c2cc(C(F)(F)F)cc(C(F)(F)F)c2)n1)NNc1cnccn1
0.543

Read the entry CCOC1OC(=O)CC1NC(=O)C1CCCN1C(=O)C(NC(=O)c1ccc(N)c(Cl)c1)C(C)(C)C (configuration not stated) and write its reported fold change.
0.559

Consider the compound CC1CN(CC(=O)Nc2ccc3c(c2)Cc2cccc(-c4cc(=O)cc(N5CCOCC5)o4)c2S3)CC(C)O1 (configuration not stated) and give its recorded fold change.
1.1

Check the records and state fold change for CC(N)(Cc1ccc(O)cc1)C(=O)O (configuration not stated)
0.646

Specify reported fold change for the compound shown: CCCCCCCCCCCCCCCCOCC(COP(=O)([O-])OCC[N+](C)(C)C)OC (configuration not stated)
1.04

# return recorded fold change for entry O=C(NCCOc1cccnc1)c1ccc2ncsc2c1
1.5

For the compound OC(CC1c2ccccc2-c2cncn21)C1CCCCC1 (configuration not stated) , give its measured fold change value.
0.351

Provide only the value of recorded fold change for COc1ccccc1CNCCCCCCNCCCCCCCCNCCCCCCNCc1ccccc1OC
0.839

Given CC1CCO[C@H]2Cn3cc(C(=O)NCc4ccc(F)cc4F)c(=O)c(O)c3C(=O)N12 (some centres not stated) , respond with its fold change.
0.731

Read off the recorded fold change for Fc1ccccc1-c1cc(NCc2ccncc2)n2nccc2n1
0.296

Complete the entry with fold change for COC(=O)CNC(=O)C(=O)OC
1.36

Return the recorded fold change value; entry: CC(C)=CCn1cnc(=N)c2[nH]cnc21
0.79

Write down fold change measured for item Cc1ccc(C(=O)NCCCCCC(=O)Nc2ccccc2N)cc1
0.44

Note down fold change recorded for CC(=O)SC1CC2=CC(=O)CC[C@]2(C)[C@@H]2CC[C@@]3(C)[C@@H](CC[C@]34CCC(=O)O4)[C@H]12 (some centres not stated)
0.8

Using known records, supply fold change for COCC1CCCN(Cc2cccc(-c3nc(-c4cccnc4)cc(=O)[nH]3)c2)C1 (configuration not stated)
1.11

Kindly indicate its recorded fold change. Item: COc1cccc2c1C(=O)c1c(O)c3c(c(O)c1C2=O)C[C@@](O)(C(=O)CO)C[C@@H]3OC1CC(N)C(OC2CCCCO2)C(C)O1 (some centres not stated)
1.21

State, in one line, measured fold change of CC(C)(C)NC(=O)C1CC2CCCCC2CN1CC(O)C(Cc1ccccc1)NC(=O)C(CC(N)=O)NC(=O)c1ccc2ccccc2n1 (configuration not stated)
1.27

Tell me its fold change given N[C@H](CO)C(=O)O as the entry.
2.63

Give the measured fold change for O=C(O)c1ccc(-c2ccc([N+](=O)[O-])cc2Cl)o1
0.203

State its fold change for this compound: Cc1cc2c(C(=O)NCC(C)c3ccccc3)c(O)c(O)cc2c(O)c1-c1c(C)cc2c(C(=O)NCC(C)c3ccccc3)c(O)c(O)cc2c1O (configuration not stated)
0.503

Fill in reported fold change for this entry: NCCC(=O)NCCc1cnc[nH]1
1.35

###

- assay: MELAS cybrid and Rieske KO viability enhancers – cell-based, MELAS cybrids, Rieske KO mouse fibroblasts, CellTiter-Glo, primary screen (AID 1508586);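 note: test concentration not given here; z relative to plate mean and SD of compound and empty wells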
- testContext: Rieske KO mouse fibroblast survival, low glucose, CellTiter-Glo 72 h
Record form. Attribute: z-score. Fill in for each entry.
Please reply with the number alone, leaving off any unit.

For the compound CSc1n[nH]c(-c2ccc(Cl)cc2)n1 , give its measured z-score value.
-0.569

For the compound COc1cc2ncn(-c3cc(OCCc4ccccc4)c(C(N)=O)s3)c2cc1OC , give its reported z-score.
-0.0569

Give z-score for the following compound: COc1cc(N2CCN(Cc3ccccc3F)C(=O)C2)ncn1
-0.349

Tell me measured z-score for C=C[C@@]1(C)CC(=O)[C@@]2(O)[C@@]3(C)C(O)CCC(C)(C)[C@@H]3C(O)C(OC(C)=O)[C@@]2(C)O1 (stereo partly specified) please.
-0.394

Tell me measured z-score for OCCCc1cn(C2CCN(c3nn4cnnc4c4ccccc34)CC2)nn1 please.
-0.51

Quote z-score reported for CC1(C)SC2C(NC(=O)C(C(=O)O)c3ccsc3)C(=O)N2C1C(=O)O (stereo unspecified) please.
-0.146

Annotate the compound CC(=O)C1=C(O)C=C2Oc3c(C(C)=O)c(O)c(C)c(O)c3[C@]2(C)C1=O with its measured z-score.
0.769

Indicate its recorded z-score; the compound in question is O=C(NCCn1ccnc1)c1cc(NCC2CC=CCC2)cc(S(=O)(=O)N2CCCC2)c1 (stereo unspecified)
-0.234

Item CC(C)N1CC(OCc2ccc(F)cc2)CN(C(=O)c2ccc(C#CC(C)(C)O)o2)CC1=O (stereo unspecified) : provide z-score
-0.177

Please list z-score recorded for the compound Cc1nn(C)cc1-c1ccnc(N2CCCN(c3ccccc3)CC2)n1
3.98

Dear colleague, please send me the reported z-score for CC(C)N(CCCNC(=O)Nc1ccc(C(C)(C)C)cc1)CC1OC(n2cc(Br)c3c(N)ncnc32)C(O)C1O (stereo unspecified) when you can.
-0.178

Entry CC1(C)CCC(c2ccc(Cl)cc2)=C(CN2CCN(c3ccc(C(=O)NS(=O)(=O)c4ccc(NC(CCN5CCOCC5)CSc5ccccc5)c(S(=O)(=O)C(F)(F)F)c4)cc3)CC2)C1 (stereo unspecified) needs its z-score filled in; supply it.
-2.71

Given COC1CC2CCC(C)[C@@](O)(O2)C(=O)C(=O)N2CCCCC2C(=O)OC(C(C)CC2CCC(O)C(OC)C2)CC(=O)C(C)C=C(C)C(O)C(OC)C(=O)C(C)CC(C)C=CC=CC=C1C (stereo partly specified) , respond with its z-score.
2.33

State its z-score for this compound: CN1CCCC1Cc1c[nH]c2ccc(CCS(=O)(=O)c3ccccc3)cc12 (stereo unspecified)
-0.595

Using the record for COc1cc(CN2CCc3c(cc(-c4cccc(F)c4)c(=O)n3CCn3ccc(C)n3)C2)ccc1O , state its measured z-score.
0.944

Return z-score (reported value) for this compound: CC(C)CN1CC(OCc2cccc(F)c2)CN(C(=O)c2cccc(N3CCNC3=O)c2)CC1=O (stereo unspecified)
-0.354

Let me know recorded z-score for CC(C)C(N)C(=O)OCC(CO)OCN1C=NC2C(=O)NC(N)=NC21 (stereo unspecified) , thanks.
-0.153

Consider the compound CCn1ccnc1CN(C)C(=O)c1cc(-c2cnc(N)nc2)nc2c(C)cccc12 . State its measured z-score.
1.17

State, in one line, measured z-score of COC(=O)c1c(NC(=O)C2CCOC2)c2cc(NC(C)CO)cnc2n1CCCc1ccccc1 (stereo unspecified)
1.02

Please indicate z-score recorded for CCCc1cn(CC2CCCN(C(=O)c3nc4ncccn4n3)C2)nn1 (stereo unspecified)
-0.243

Quickly give me recorded z-score for COc1cc2c(cc1OC)CC(=O)N(CCCN(C)CC1Cc3cc(OC)c(OC)cc31)CC2 (stereo unspecified)
0.346
